Data provenance: PubChem BioAssay (NCI)

test: NCI Yeast Anticancer Drug Screen. Data for the mlh1 rad18 strain (AID 175); conditions: S. cerevisiae mlh1 rad18 strain growth inhibition; at 50.0 µM; hits give high values
Compounds without any hit were thinned out: in the full panel of roughly 79,000, 15% have a hit.
recorded_endpoint: growth inhibition (%)
The response must be a number in % with no trailing unit.

molecule | display_unit | growth inhibition
CC(NC(=O)NCCCl)C1CC1 (stereo unspecified) | % | -0.8
N#C/C(=C\c1cccs1)C(N)=S | % | 1.65
CC1=C(C(=O)Nc2ccccc2C)C(c2ccc(N(C)C)cc2)C(C(=O)Nc2ccccc2C)=C(C)N1 | % | -13.8

Exercise: Please give the measured growth inhibition for this molecule: `CC(=O)Nc1c(C)n(C)n(-c2ccccc2)c1=O`
Key: 13.6

Exercise: Please give the measured growth inhibition for this molecule: `c1ccc(-c2nc3ccccc3nc2-c2ccc(-c3ccc(-c4nc5ccccc5nc4-c4ccccc4)cc3)cc2)cc1`
Key: 4.1

Exercise: Please give the measured growth inhibition for this molecule: `c1ccc2c[n+]3cc4ccccc4cc3cc2c1`
Key: 56.1

###

This listing pairs compounds with measured growth inhibition.
assay: NCI Yeast Anticancer Drug Screen. Data for the mlh1 rad18 strain (AID 175); details: S. cerevisiae mlh1 rad18 strain growth inhibition; at 50.0 µM; hits give high values
This is part of a sample that, as a whole, favours compounds with a hit. Of some 79,000 tested, about 15% had one in any assay.
The response must be a number in % with no trailing unit.

// solved cases for growth inhibition follow
compound | growth inhibition / %
O=C(CC(O)(C(F)(F)F)C(F)(F)F)C(CCCl)C(O)(C(F)(F)F)C(F)(F)F (stereo not given) | 38.8
CN(C)S(=O)(=O)Cc1ccccc1 | -7.1
Cc1cc2c(c(C(=O)NCCC(=O)O)c1)Oc1c(cc(C)cc1C(=O)NCCC(=O)O)S2 | -2.65

Turning now to a further compound:
Exercise: Please give the measured growth inhibition for this compound: NCC1OCOC2C(C(=O)O)OCOC12 (stereo not given)
Key: -3.7

###

assay: NCI Yeast Anticancer Drug Screen. Data for the cln2 rad14 strain (AID 165);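 further: 0% = growth equal to vehicle treated cultures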; conditions: S. cerevisiae cln2 rad14 strain, at 50.0 µM, hits give high values
The panel holds about 79,000 compounds, 15% with a hit somewhere; the sample as a whole holds those more often.
This listing pairs molecules with measured growth inhibition.
The response must be a number in % with no trailing unit.

molecule | growth inhibition, %
Cc1cc(N=Nc2ccc(S(=O)(=O)O)c3ccccc23)ccc1O | -66.1

Exercise: Please give the measured growth inhibition for this molecule: CC(C)=C1C(=O)C[C@]2(C)C[C@H]3/C(=C(/C)CCC12)CC[C@@]3(C)O (some centres not stated)
Key: 28.6

Exercise: Please give the measured growth inhibition for this molecule: COc1ccc(C(c2cc3c(cc2O)OCO3)N2CCCCC2)c(OC)c1 (configuration not stated)
Key: -22.4

Exercise: Please give the measured growth inhibition for this molecule: `COC(=O)CCNC(=O)c1ccccc1`
Key: -5.75

Exercise: Please give the measured growth inhibition for this molecule: Cc1cc(Cl)c(O)c(C2(C(O)c3ccc(O)cc3)NC(=S)NC2=O)c1 (configuration not stated)
Key: -6.5

Exercise: Please give the measured growth inhibition for this molecule: COC(=O)C1[C@@H](C(=O)OC)C12C=Cc1ccccc1C=C2 (some centres not stated)
Key: 1.05

Exercise: Please give the measured growth inhibition for this molecule: CCOC(=O)C(CO)C1CCCC1 (configuration not stated)
Key: -5.4

Exercise: Please give the measured growth inhibition for this molecule: C=C(C)C(O)CC (configuration not stated)
Key: 4.3

Exercise: Please give the measured growth inhibition for this molecule: `CC(C)CCNc1nc(N)[nH]c(=O)c1NC=O`
Key: 7.5

###

test: NCI Yeast Anticancer Drug Screen. Data for the cln2 rad14 strain (AID 165);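 further: 0% = growth equal to vehicle treated cultures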; settings: S. cerevisiae cln2 rad14 strain, at 50.0 µM, hits give high values
About 79,000 compounds went through this panel and 15% of them were active in at least one assay; those are over-represented in the sample as a whole.
recorded_endpoint: growth inhibition (%)
The response must be a number in % with no trailing unit.

// solved cases for growth inhibition follow
compound | display_unit | growth inhibition
O=CC(=C\c1cccs1)/C(C=O)=C\c1cccs1 | % | 99.1
COc1ccc2[nH]cc(CC(NC(C)=O)C(=O)O)c2c1 (stereo unspecified) | % | -0.5
CCCOc1ccc(C(=O)C(C(c2ccccc2)N2CCOCC2)N2CCOCC2)cc1 (stereo unspecified) | % | 36.7

Exercise: Please give the measured growth inhibition for this compound: `O=C1C(=S)Nc2c(F)cccc21`
Key: 39.6

Exercise: Please give the measured growth inhibition for this compound: CCCCC(CC)COC(=O)CCl (stereo unspecified)
Key: -14.8

###

test: NCI Yeast Anticancer Drug Screen. Data for the cln2 rad14 strain (AID 165);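 further: 0% = growth equal to vehicle treated cultures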; details: S. cerevisiae cln2 rad14 strain, at 50.0 µM, hits give high values
This is part of a sample that, as a whole, favours compounds with a hit. Of some 79,000 tested, about 15% had one in any assay.
recorded_endpoint: growth inhibition (%)
The response must be a number in % with no trailing unit.

// solved cases for growth inhibition follow
compound | assay_value
C1CCC(C2CCCC2)CC1 | -32.6
CC1(C)C2CCC(C2)C1/C=C1/SC(=S)NC1=O (configuration not stated) | 49
O=S1(=O)C=Cc2ccccc2CC1 | -10.8
CC(C)(C)C1=NC(S)NC(CCC(=O)Nc2ccccc2[N+](=O)[O-])=C1 (configuration not stated) | 14.2
CCNC(=S)NCC | 6.7

Exercise: Please give the measured growth inhibition for this compound: `O=C([CH-]C(=O)C(F)(F)F)c1ccccc1.O=C([CH-]C(=O)C(F)(F)F)c1ccccc1.O=C([CH-]C(=O)C(F)(F)F)c1ccccc1.[Ru+3]`
Key: -22.7

Exercise: Please give the measured growth inhibition for this compound: `CSc1c(C)n([O-])c2ccccc2[n+]1=O`
Key: -20.5

Exercise: Please give the measured growth inhibition for this compound: Cc1cn(C2CC(O)C(CO)O2)c(=O)nc1N1CCCCCCC1 (configuration not stated)
Key: -12.3

Exercise: Please give the measured growth inhibition for this compound: `C=C1C(=O)N2CCc3c([nH]c4ccccc34)[C@H]2C[C@@H]1CO`
Key: 5

Exercise: Please give the measured growth inhibition for this compound: `O=c1[nH]c2cc(Cl)ccc2nc1/C=C(\O)c1ccccc1`
Key: 4.55

Exercise: Please give the measured growth inhibition for this compound: `CN(/N=C/c1cccs1)c1ccc([N+](=O)[O-])cc1[N+](=O)[O-]`
Key: -9.35

Exercise: Please give the measured growth inhibition for this compound: `C[N+](C)(C)/C=C/c1ccccc1`
Key: -11.3

###

assay: NCI Yeast Anticancer Drug Screen. Data for the sgs1 mgt1 strain (AID 161);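 further: 0% = growth of cultures given vehicle only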; settings: S. cerevisiae sgs1 mgt1 strain, at 50.0 µM, hits give high values
About 79,000 compounds went through this panel and 15% of them were active in at least one assay; those are over-represented in the sample as a whole. Calls of active or inactive are those of the source. No stated cut-off is given here; in the data, active means growth inhibition above about 70%; inactive means the rest.
This listing pairs compounds with measured growth inhibition.

// solved cases for growth inhibition follow
compound | recorded_endpoint | assay_value
COc1cc2cc(-c3ccc(Cl)c(Cl)c3)[n+](C)cc2cc1OC | growth inhibition | 35.3% (inactive)
NC(=S)N/N=C\c1nccc2ccsc12 | growth inhibition | -9.35% (inactive)
O=C(Nc1ncnc2nc(-c3ccccc3)[nH]c12)c1ccccc1 | growth inhibition | -5% (inactive)
COc1c2c(cc3c1C(=O)Cc1ccc4c(c1CN(C)CC3)OCO4)OCO2 | growth inhibition | -1.15% (inactive)
CC(C)c1ccc(/C=C2/C=C(c3ccc4ccccc4c3)OC2=O)cc1 | growth inhibition | -31.8% (inactive)

Exercise: Please give the measured growth inhibition for this compound: O=C(O[C@H]1[C@@H]2C=CO[C@@H](OC3OC(CO)C(O)C(O)C3O)[C@@H]2[C@@]2(CO)O[C@@H]12)c1ccc(O)c(O)c1 (stereo partly specified)
Key: -4.6% (inactive)

Exercise: Please give the measured growth inhibition for this compound: `O=c1[nH]c(=S)[nH]c2[nH]c(=S)ncc12`
Key: -31.8% (inactive)

Exercise: Please give the measured growth inhibition for this compound: `CCCCCCCCCCCCCCCCCCN=C=O`
Key: -17.8% (inactive)

Exercise: Please give the measured growth inhibition for this compound: CC(=O)NC(CCC(=O)C=[N+]=N)C(=O)O (stereo unspecified)
Key: 33.5% (inactive)

Exercise: Please give the measured growth inhibition for this compound: `COC1=NS(=O)(=O)C2(O1)c1ccccc1-c1ccccc12`
Key: 11.4% (inactive)

Exercise: Please give the measured growth inhibition for this compound: `Cn1c(=O)c2c(ncn2C2C(=O)NNC2=O)n(C)c1=O`
Key: -17.2% (inactive)

###

assay: NCI Yeast Anticancer Drug Screen. Data for the sgs1 mgt1 strain (AID 161);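 further: 0% = growth of cultures given vehicle only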; details: S. cerevisiae sgs1 mgt1 strain, at 50.0 µM, hits give high values
About 79,000 compounds went through this panel and 15% of them were active in at least one assay; those are over-represented in the sample as a whole.
This listing pairs compounds with measured growth inhibition.
The response must be a number in % with no trailing unit.

// solved cases for growth inhibition follow
compound | growth inhibition (%)
O=C(NC(COC(=O)c1ccccc1)COC(=O)c1ccccc1)c1ccccc1 | 12.8
CSc1nc(=O)cc(N)n1C | 9.55
C=CCNC(=O)/C(C)=C(\C)c1ccc(F)cc1 | 3.2
C[N+]12CCCCC1CC2 (stereo not given) | -7.35
O=S(=O)(O)c1ccccc1/C=N\N=C\c1ccccc1S(=O)(=O)O | 11.7

Turning now to a further compound:
Exercise: Please give the measured growth inhibition for this compound: `O=C(Nc1ccc(Cl)cc1)P(=O)(O)c1ccccc1`
Key: -23.1
